- assayed system: human ether-à-go-go-related gene (hERG) potassium channel (human, UniProt Q12809);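 note: peak tail current of the secondary pulse compared with the same well before compound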
- Sequence (Q12809 whole entry, looked up): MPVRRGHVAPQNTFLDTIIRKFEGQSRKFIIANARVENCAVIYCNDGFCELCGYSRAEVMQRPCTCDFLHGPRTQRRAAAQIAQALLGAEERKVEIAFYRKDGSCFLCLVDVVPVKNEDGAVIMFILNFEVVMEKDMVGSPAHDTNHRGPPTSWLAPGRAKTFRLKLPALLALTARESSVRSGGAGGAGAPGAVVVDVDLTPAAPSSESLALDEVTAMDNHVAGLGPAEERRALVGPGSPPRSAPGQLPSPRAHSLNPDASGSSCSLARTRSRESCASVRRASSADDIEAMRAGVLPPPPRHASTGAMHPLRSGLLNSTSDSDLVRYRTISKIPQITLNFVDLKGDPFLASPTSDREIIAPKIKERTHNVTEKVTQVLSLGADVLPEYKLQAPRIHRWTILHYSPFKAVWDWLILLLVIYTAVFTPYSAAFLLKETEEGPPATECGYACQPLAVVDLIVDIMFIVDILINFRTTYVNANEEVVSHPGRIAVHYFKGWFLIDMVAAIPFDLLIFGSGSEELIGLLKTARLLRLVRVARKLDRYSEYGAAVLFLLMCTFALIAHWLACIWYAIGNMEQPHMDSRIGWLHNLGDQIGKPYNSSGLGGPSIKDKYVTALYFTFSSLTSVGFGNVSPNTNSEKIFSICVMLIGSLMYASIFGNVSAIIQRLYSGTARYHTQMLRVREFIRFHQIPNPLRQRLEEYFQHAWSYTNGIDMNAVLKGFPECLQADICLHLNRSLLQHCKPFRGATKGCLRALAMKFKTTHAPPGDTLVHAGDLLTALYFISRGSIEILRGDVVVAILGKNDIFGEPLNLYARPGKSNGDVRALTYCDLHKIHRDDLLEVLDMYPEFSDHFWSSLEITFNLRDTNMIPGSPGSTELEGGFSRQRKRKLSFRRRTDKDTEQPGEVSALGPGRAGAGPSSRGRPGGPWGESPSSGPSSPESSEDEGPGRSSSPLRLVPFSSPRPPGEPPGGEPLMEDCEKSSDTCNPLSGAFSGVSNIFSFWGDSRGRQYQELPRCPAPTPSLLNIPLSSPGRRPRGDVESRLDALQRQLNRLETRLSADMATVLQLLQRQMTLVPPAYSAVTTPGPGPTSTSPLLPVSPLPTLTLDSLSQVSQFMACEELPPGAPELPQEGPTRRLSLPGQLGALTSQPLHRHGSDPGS
- measurement description: primary screen, population patch clamp on CHO cells stably expressing hERG; higher = less effect of the substance
The whole screen tested about 310,000 compounds, of which about 14,000 (4.5%) showed an effect of 50% or more. Effects have a minus sign here. Only a selection was taken, and strong results are over-represented in it overall.
Exercise: for every item that follows, state its recorded hERG current change (%, negative = inhibition) at 10uM.
Please respond with the number in % and leave the unit unwritten.

*Q* // query hERG current change (%, negative = inhibition) at 10uM value for entry OCC1(Cc2ccccc2)CCCN(Cc2cnn(-c3ccccc3)c2)C1 (stereo not drawn)
*A* -59.4

*Q* // query hERG current change (%, negative = inhibition) at 10uM value for entry Cc1ccsc1/C=N/Nc1ncc(Cl)cc1Cl
*A* 5.75

*Q* // query hERG current change (%, negative = inhibition) at 10uM value for entry Cc1ccc(SC2=C(C(=O)O)CCCC2)cc1
*A* 4.25

*Q* // query hERG current change (%, negative = inhibition) at 10uM value for entry O=C(NC(Cc1ccccc1)c1ccc2c(c1)OCCCO2)c1ccccc1 (stereo not drawn)
*A* 19.1

*Q* // query hERG current change (%, negative = inhibition) at 10uM value for entry Cn1cc(CN2CCCC(CO)(Cc3cccc(Cl)c3)C2)cn1 (stereo not drawn)
*A* -17.1

*Q* // query hERG current change (%, negative = inhibition) at 10uM value for entry Cn1cc(CN2CCCC(CO)(Cc3ccccc3)C2)cn1 (stereo not drawn)
*A* 4.27

---

- assayed system: human ether-à-go-go-related gene (hERG) potassium channel (human, UniProt Q12809);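 note: peak tail current of the secondary pulse compared with the same well before compound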
- measurement description: primary screen, population patch clamp on CHO cells stably expressing hERG; higher = less effect of the substance
Screen size: about 310,000 compounds; about 14,000 (4.5%) showed an effect of 50% or more. Effects have a minus sign here. The entries come from a sample that favours strong results as a whole.
Exercise: for every item that follows, state its recorded hERG current change (%, negative = inhibition) at 10uM.
Please respond with the number in % and leave the unit unwritten.

*Q* Lab note: need hERG current change (%, negative = inhibition) at 10uM for Cc1ccc(NC(=O)/C=N/OCC(=O)NCc2ccccc2Cl)cc1 on human ether-à-go-go-related gene (hERG) potassium channel (human, UniProt Q12809), anyone have it?
*A* 2.92

*Q* Lab note: need hERG current change (%, negative = inhibition) at 10uM for CC(=O)C(Sc1nn(C)c(=S)s1)C(=O)Nc1ccccc1 (centres unmarked) on human ether-à-go-go-related gene (hERG) potassium channel (human, UniProt Q12809), anyone have it?
*A* 3.73

*Q* Lab note: need hERG current change (%, negative = inhibition) at 10uM for COc1ccc(NC(=O)CN(C)C(=O)c2cccc(S(=O)(=O)N3CCN(c4ccccc4)CC3)c2)cc1 on human ether-à-go-go-related gene (hERG) potassium channel (human, UniProt Q12809), anyone have it?
*A* -3.62

*Q* Lab note: need hERG current change (%, negative = inhibition) at 10uM for CCCCCc1cc(=O)oc2c(C(CCN(CC)CC)c3cc(OC)c(OC)c(OC)c3)c(OC)cc(OC)c12 (centres unmarked) on human ether-à-go-go-related gene (hERG) potassium channel (human, UniProt Q12809), anyone have it?
*A* -38.2

*Q* Lab note: need hERG current change (%, negative = inhibition) at 10uM for C=CCc1ccc(OCCn2nnc3ccccc32)c(OC)c1 on human ether-à-go-go-related gene (hERG) potassium channel (human, UniProt Q12809), anyone have it?
*A* -12.8
